molecular target: Alpha-1A adrenergic receptor (Homo sapiens); experiment: Percent response towards alpha 1A adrenergic receptor in canine prostate using phenylephrine as control agonist; format: functional, tissue-based; settings: Canis lupus familiaris; Prostate gland; target entry is the homologue from another species
For each entry below, report its Emax value.
Report as a plain number; the unit % is understood.

Notebook: pull reported Emax for Alpha-1A adrenergic receptor (Homo sapiens), entry Cc1cc(C(C)(C)C)c(O)c(C)c1CC1=NCCN1
71

Notebook: pull reported Emax for Alpha-1A adrenergic receptor (Homo sapiens), entry NCC(O)c1ccc(O)c(O)c1 (single isomer, unassigned) [NOREPINEPHRINE]
117

Notebook: pull reported Emax for Alpha-1A adrenergic receptor (Homo sapiens), entry CS(=O)(=O)Nc1c(O)ccc2c1CCC[C@@H]2C1=NCCN1
24

Notebook: pull reported Emax for Alpha-1A adrenergic receptor (Homo sapiens), entry CS(=O)(=O)Nc1c(O)ccc2c1CCCC2C1=NCCN1 (stereo unspecified)
91

Notebook: pull reported Emax for Alpha-1A adrenergic receptor (Homo sapiens), entry CS(=O)(=O)Nc1c(O)ccc2c1CCC[C@H]2C1=NCCN1
63

Notebook: pull reported Emax for Alpha-1A adrenergic receptor (Homo sapiens), entry CNC[C@H](O)c1cccc(O)c1
100

---

For each entry below, report its Ki value.
Report as a plain number; the unit nM is understood.

Notebook: pull reported Ki for Alpha-1B adrenergic receptor (Mesocricetus auratus, UniProt P18841), entry CS(=O)(=O)Nc1c(O)ccc2c1CCCC2C1=NCCN1 (centres undefined)
2090

Notebook: pull reported Ki for Alpha-1B adrenergic receptor (Mesocricetus auratus, UniProt P18841), entry CS(=O)(=O)Nc1c(O)ccc2c1CCC[C@@H]2C1=NCCN1
17400

Notebook: pull reported Ki for Alpha-1B adrenergic receptor (Mesocricetus auratus, UniProt P18841), entry NCC(O)c1ccc(O)c(O)c1 (single isomer, unassigned) [NOREPINEPHRINE]
263

Notebook: pull reported Ki for Alpha-1B adrenergic receptor (Mesocricetus auratus, UniProt P18841), entry CS(=O)(=O)Nc1c(O)ccc2c1CCC[C@H]2C1=NCCN1
2820

---

biological target: UniProt P43140; test: Percent response towards alpha 1A adrenergic receptor in rat vas deferens using phenylephrine as control agonist; format: functional, tissue-based
Sequence (P43140 whole entry): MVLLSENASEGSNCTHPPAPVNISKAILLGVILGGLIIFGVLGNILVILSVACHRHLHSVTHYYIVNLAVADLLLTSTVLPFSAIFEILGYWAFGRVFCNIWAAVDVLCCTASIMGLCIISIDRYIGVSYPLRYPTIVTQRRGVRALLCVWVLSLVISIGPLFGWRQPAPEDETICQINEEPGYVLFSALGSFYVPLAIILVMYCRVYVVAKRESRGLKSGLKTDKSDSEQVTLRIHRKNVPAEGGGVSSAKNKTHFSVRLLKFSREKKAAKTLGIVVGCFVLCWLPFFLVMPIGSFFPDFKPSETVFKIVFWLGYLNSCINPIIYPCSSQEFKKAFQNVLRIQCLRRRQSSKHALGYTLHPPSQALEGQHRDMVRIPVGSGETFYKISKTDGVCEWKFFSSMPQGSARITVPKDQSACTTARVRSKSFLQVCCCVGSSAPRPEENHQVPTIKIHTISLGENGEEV
Param label: returns 1 when Emax < 80%, returns 0 otherwise, including exact equality.

Please let me know if CS(=O)(=O)Nc1c(O)ccc2c1CCC[C@@H]2C1=NCCN1 shows Emax below 80%.
1

Please let me know if NCC(O)c1ccc(O)c(O)c1 (single isomer, unassigned) [NOREPINEPHRINE] shows Emax below 80%.
0

Please let me know if CNC[C@H](O)c1cccc(O)c1 shows Emax below 80%.
0

Please let me know if CS(=O)(=O)Nc1c(O)ccc2c1CCCC2C1=NCCN1 (stereo unspecified) shows Emax below 80%.
0

---

For each entry below, report its pEC50 value.
target: Alpha-1D adrenergic receptor (Rattus norvegicus, UniProt P23944); assay: In vitro agonist potency towards Alpha-1D adrenergic receptor in rat aorta
For clarity, pEC50 is expressed as the negative log10 of concentration in mol/L.

Look up pEC50 for this molecule: CS(=O)(=O)Nc1c(O)ccc2c1CCC[C@H]2C1=NCCN1
5.99

Look up pEC50 for this molecule: CS(=O)(=O)Nc1c(O)ccc2c1CCCC2C1=NCCN1 (stereo not drawn)
5.59

---

biological target: Alpha-1D adrenergic receptor (Rattus norvegicus) (UniProt P23944); experiment: Percent response towards alpha 1D adrenergic receptor in rat aorta using phenylephrine as control agonist; assay type: functional, tissue-based
Sequence (P23944 whole entry): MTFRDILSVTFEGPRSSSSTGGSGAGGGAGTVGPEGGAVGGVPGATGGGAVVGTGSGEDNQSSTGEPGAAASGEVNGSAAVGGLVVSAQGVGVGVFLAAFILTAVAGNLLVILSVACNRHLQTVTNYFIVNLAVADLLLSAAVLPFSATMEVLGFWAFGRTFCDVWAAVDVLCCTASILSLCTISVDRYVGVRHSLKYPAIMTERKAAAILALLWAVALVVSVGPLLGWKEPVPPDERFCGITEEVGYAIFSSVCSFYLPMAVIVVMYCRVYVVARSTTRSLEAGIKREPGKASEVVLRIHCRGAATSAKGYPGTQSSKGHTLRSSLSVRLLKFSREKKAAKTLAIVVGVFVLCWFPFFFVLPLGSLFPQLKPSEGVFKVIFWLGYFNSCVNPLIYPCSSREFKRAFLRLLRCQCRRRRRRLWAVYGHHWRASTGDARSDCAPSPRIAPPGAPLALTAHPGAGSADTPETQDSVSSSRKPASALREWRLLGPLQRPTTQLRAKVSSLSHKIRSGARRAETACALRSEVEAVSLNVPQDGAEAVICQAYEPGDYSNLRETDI
parameter.measured: Emax (%)
Report as a plain number; the unit % is understood.

Look up Emax for this compound: NCC(O)c1ccc(O)c(O)c1 (single isomer, unassigned) [NOREPINEPHRINE]
113

Look up Emax for this compound: CS(=O)(=O)Nc1c(O)ccc2c1CCCC2C1=NCCN1 (stereo not given)
100

Look up Emax for this compound: CS(=O)(=O)Nc1c(O)ccc2c1CCC[C@H]2C1=NCCN1
103

Look up Emax for this compound: CNC[C@H](O)c1cccc(O)c1 [PHENYLEPHRINE]
100

Look up Emax for this compound: Cc1cc(C(C)(C)C)c(O)c(C)c1CC1=NCCN1 [OXYMETAZOLINE]
83
